EXPERIMENT: NCI Yeast Anticancer Drug Screen. Data for the mec2-1 strain (AID 157)
MEASUREMENT CONTEXT: S. cerevisiae mec2-1 strain, at 5.0 µM (retest, dose inferred, filed as 0.5)
Compounds without any hit were thinned out: in the full panel of roughly 79,000, 15% have a hit. Activity calls are given as the source filed them. No stated cut-off is given here; in the data, active means growth inhibition above about 70%; inactive means the rest.
Outcomes: Yes for active, No for inactive

[
  {
    "COMPOUND": "CC1(C)[C@H]2CC[C@]1(C)[C@H](OC(=O)NNC(=O)O[C@@H]1C[C@@H]3CC[C@@]1(C)C3(C)C)C2",
    "GROUP": "No"
  },
  {
    "COMPOUND": "O=c1cc(-c2ccccc2)oc2ccc(-c3ccc4oc(-c5ccccc5)cc(=O)c4c3)cc12",
    "GROUP": "No"
  },
  {
    "COMPOUND": "CCCCCCCCCCCCCCCCOS(=O)(=O)O",
    "GROUP": "No"
  },
  {
    "COMPOUND": "Cc1ccc(C2(c3ccc(F)cc3)OC(=O)c3ccccc32)c(O)c1 (configuration not stated)",
    "GROUP": "No"
  },
  {
    "COMPOUND": "CC1(C)CCC2(C(=O)O)CCC3(C)C(=CCC4C5(C)CC(O)C(O)C(C)(C(=O)O)C5CCC43C)C2C1 (configuration not stated)",
    "GROUP": "Yes"
  },
  {
    "COMPOUND": "COC(=O)c1nnn(-c2cccc(C(F)(F)F)c2)c1C(=O)c1ccc(Cl)c(Cl)c1",
    "GROUP": "No"
  },
  {
    "COMPOUND": "Cc1ccccc1Sc1ccccc1[N+](=O)[O-]",
    "GROUP": "No"
  },
  {
    "COMPOUND": "Clc1cc[c]([Sn]([Cl])([O][Sn]([Cl])([c]2ccc(Cl)cc2)[c]2ccc(Cl)cc2)[c]2ccc(Cl)cc2)cc1",
    "GROUP": "Yes"
  },
  {
    "COMPOUND": "O=S(=O)(c1cc(Cl)c(Cl)cc1Cl)N(CCCCCN(S(=O)(=O)c1cc(Cl)c(Cl)cc1Cl)S(=O)(=O)c1cc(Cl)c(Cl)cc1Cl)S(=O)(=O)c1cc(Cl)c(Cl)cc1Cl",
    "GROUP": "No"
  },
  {
    "COMPOUND": "O=C1CCCCC1Sc1ccc(Cl)cc1 (configuration not stated)",
    "GROUP": "No"
  },
  {
    "COMPOUND": "Cc1nn(C)c2ccc3ccccc3c(=O)c12",
    "GROUP": "No"
  },
  {
    "COMPOUND": "Cc1cc(NC(=S)SCc2ccc3c(c2)OCO3)ccc1Cl",
    "GROUP": "No"
  },
  {
    "COMPOUND": "CCOC(=O)C1=C(C)NC(C)=C(C(=O)OCC)C1c1ccnc2ccccc12",
    "GROUP": "No"
  },
  {
    "COMPOUND": "N#CCCN(CCC#N)c1ccc(C(Sc2ccccc2)C(NC(=O)c2cc([N+](=O)[O-])ccc2Cl)C(=O)Sc2ccccc2)cc1 (configuration not stated)",
    "GROUP": "No"
  },
  {
    "COMPOUND": "CCCOC(=O)C#CC(=O)OCCC",
    "GROUP": "No"
  },
  {
    "COMPOUND": "Cc1ccc(S(=O)(=O)NC2(C=O)CCC(C(C)(C)C)CC2)cc1 (configuration not stated)",
    "GROUP": "No"
  },
  {
    "COMPOUND": "COc1ccc(C2NCc3c(sc4c3CCCC4)-n3cccc32)cc1 (configuration not stated)",
    "GROUP": "No"
  },
  {
    "COMPOUND": "CCCC(=O)Oc1c(Br)cc(Br)cc1Br",
    "GROUP": "No"
  },
  {
    "COMPOUND": "O=C1CCCCO1",
    "GROUP": "No"
  },
  {
    "COMPOUND": "CCOC(=O)C(Cl)C(Cl)C(=O)OCC (configuration not stated)",
    "GROUP": "No"
  },
  {
    "COMPOUND": "CN(/N=C/c1ccc(C(=O)O)cc1)C1=NCCCCN1",
    "GROUP": "No"
  },
  {
    "COMPOUND": "CC(=O)c1c(O)c2cccc3c2n(c1=O)CCC3",
    "GROUP": "No"
  },
  {
    "COMPOUND": "O=[N+]([O-])c1ccc(CC(c2ccc([N+](=O)[O-])cc2)(c2ccc([N+](=O)[O-])cc2)c2ccc([N+](=O)[O-])cc2)cc1",
    "GROUP": "No"
  },
  {
    "COMPOUND": "CCN(C(=O)c1ccccc1C)C(c1ccccc1)P(=O)(c1ccccc1)c1ccccc1 (configuration not stated)",
    "GROUP": "No"
  },
  {
    "COMPOUND": "COc1cc(C)c2sc3ccccc3c(=O)c2c1NCCCN(C)C",
    "GROUP": "No"
  },
  {
    "COMPOUND": "CCOC(=O)Oc1ccc(C)cc1[N+](=O)[O-]",
    "GROUP": "No"
  },
  {
    "COMPOUND": "Cn1nc(-c2ccccc2NC(=O)C(F)(F)F)c(=O)n(C)c1=S",
    "GROUP": "No"
  },
  {
    "COMPOUND": "C[C@H]1CC[C@@H]2[C@@H](C)[C@H]3[C@H](C[C@H]4[C@@H]5CC=C6C[C@@H](O)CC[C@]6(C)[C@H]5CC[C@]34C)N2C1",
    "GROUP": "No"
  },
  {
    "COMPOUND": "CCN(CC)CCOc1cccc2c1C(=O)c1c(O)cccc1C2=O",
    "GROUP": "No"
  },
  {
    "COMPOUND": "CC12CCC(=O)C=C1CCC1C2C(O)CC2(C)C(c3csc(N)n3)CCC12 (configuration not stated)",
    "GROUP": "No"
  },
  {
    "COMPOUND": "CC(C)Cc1cc2c(cc1O)CCC1C2CC[C@@]2(C)C1CC[C@@H]2O (some centres not stated)",
    "GROUP": "No"
  },
  {
    "COMPOUND": "CN(c1ccc(C(N)=O)cc1)c1c(O)c2ccccc2[nH]c1=O",
    "GROUP": "No"
  },
  {
    "COMPOUND": "NNc1ccccc1[N+](=O)[O-]",
    "GROUP": "No"
  },
  {
    "COMPOUND": "Cc1ccc(N2CC(O)CN(c3ccc(C)cc3)CC(O)C2)cc1 (configuration not stated)",
    "GROUP": "No"
  },
  {
    "COMPOUND": "Cc1ccccc1N=Nc1sc(N)nc1-c1ccccc1",
    "GROUP": "No"
  },
  {
    "COMPOUND": "CCOc1ccc(/C=C\\c2ccnc3ccccc23)cc1OCC",
    "GROUP": "No"
  },
  {
    "COMPOUND": "O=[N+]([O-])/C(C=Nc1ccccc1)=C/Nc1ccccc1",
    "GROUP": "No"
  }
]
